- Test system: SK-MEL-2 melanoma
- Assay protocol: NCI-60 one-dose screen, 48 h
- Test context: 10 µM unless noted
Compounds without any hit were thinned out: in the full panel of roughly 83,000, 20% have a hit. Calls of active or inactive are those of the source. The calls were made as follows: active = growth percent below 10; inactive = the rest.
Write down one outcome, taken from active, inactive

[
  {
    "Compound": "Cc1cc(C)n(C(=O)c2sc(=S)n(-c3ccccc3)c2N=Nc2c(N)n[nH]c2N)n1",
    "System": "SK-MEL-2 melanoma",
    "Assigned class": "inactive"
  },
  {
    "Compound": "CCN(CC)c1cn(-c2ccc(S(N)(=O)=O)cc2)nn1",
    "System": "SK-MEL-2 melanoma",
    "Assigned class": "inactive"
  },
  {
    "Compound": "COC(=O)C[Se]C(=O)Cc1c(C)n(C(=O)c2ccc(Cl)cc2)c2ccc(OC)cc12",
    "System": "SK-MEL-2 melanoma",
    "Assigned class": "inactive"
  }
]

Input: Field: outcome | Entry: O=C(c1ccc(Cl)cc1)C1[C@H](c2ccc(Cl)cc2)[C@@H](c2ccccc2)NC12C(=O)Nc1ccccc12 (some centres not stated)
Output: inactive

Input: Assay result, entry CCO/C=N/C1=C(C#N)C(c2ccc(F)cc2)c2sc3c(CC)cccc3c2O1 (configuration not stated) — outcome?
Output: inactive

Input: Please state the recorded outcome for this compound: O=C(Nc1ccc(N=Cc2c(O)[nH]c3ccccc23)cc1)Nc1nccs1
Output: inactive

Input: // return assay outcome for CC1(C)CC[C@]2(CN)CC[C@]3(C)C(=CC[C@@H]4[C@@]5(C)CCCNC(C)(C)[C@@H]5CC[C@]43C)[C@H]2C1
Output: inactive

Input: Test call for this compound, please: C=C1CC[C@@H]2[C@](C)(CO)[C@H](O)CC[C@@]2(C)[C@@H]1C/C(O)=C1\CCOC1=O
Output: inactive

Input: Recorded call for O=S(=O)(NCCNc1nccc(-n2cnc3ccccc32)n1)c1ccc(Cl)cc1 ?
Output: inactive

Input: Assay result, entry Oc1[nH]c2ccccc2c1Nn1c(N=N/C=c2/ccc3c(c2)C=NN=3)n[nH]c1=S — outcome?
Output: inactive

Input: Answer briefly: the call reported for CCc1cccc2c3c(sc12)C(c1ccc(OC)cc1)C(C#N)=C(/N=C/c1ccc(Cl)cc1)O3 (configuration not stated) in this assay.
Output: active

Input: Lab log entry: CC1=CC(=O)C2=C(C)CC(OC(=O)CCc3ccccc3)[C@@H]3[C@H](OC(=O)[C@@H]3C)[C@@H]12 (some centres not stated) — outcome as called in the assay?
Output: inactive

Input: Called result for CCNC(=O)N1CCc2cc(OC)c(OCCc3ccc(OC)nc3)cc2C1c1ccc(C)cc1C (configuration not stated)
Output: active

Input: Outcome? O=C(Nc1ccc(F)c(F)c1)c1cc(-c2ccc(F)cc2F)ccc1O
Output: active

Input: Please indicate how the test categorized CNC(=O)c1cc(-c2ccc(NC(=S)Nc3cc(C(F)(F)F)cc(C(F)(F)F)c3)cc2)nc2cccnc12 .
Output: inactive

Input: Recorded call for C=CC(=O)N1CC=C(c2cc3c(N[C@H](C)c4ccccc4)ncnc3[nH]2)CC1 ?
Output: inactive

Input: Name the outcome recorded for Cc1ccc(CSc2nc(-c3ccc(Cl)cc3)c(C#N)c(N3CCNCC3)n2)cc1 in the assay.
Output: inactive

Input: Any idea what this test logged for COc1c(N2CC3CCCNC3C2)c(F)cc2c(=O)c(C(=O)N/N=C/c3c[nH]c4ccccc34)cn(C3CC3)c12 (configuration not stated) ?
Output: inactive

Input: Status in this test for COc1ccc(-c2cc(-c3ccc(Cl)cc3)c(C#N)c(=O)n2Cc2ccc(C(=O)O)cc2)cc1 ?
Output: inactive

Input: Could you check what this test reported for COc1cc2nc(Cl)nc(Nc3cccc(C4=Nc5c(N)nc(N)nc5NC(c5ccc(Br)cc5)C4)c3)c2cc1OC (configuration not stated) ?
Output: inactive

Input: Assay outcome for O=C(c1ccc(O)c(C(=O)N2Cc3ccc(OCCC[P+](c4ccccc4)(c4ccccc4)c4ccccc4)cc3C2)c1)N1Cc2cccc(F)c2C1 : what was it?
Output: inactive

Input: Would you mind telling me which call this test gave COc1ccc2c(c1)c(-c1cc(N)n3nc(-c4cn(C)c5ccc(OC)cc45)cc3n1)cn2C ?
Output: inactive

Input: Answer briefly: the call reported for O=C(CN1CCN(c2cc(=O)[nH]c3ccc(F)cc23)CC1)Nc1ccc(Cl)cc1 in this assay.
Output: inactive

Input: Give the logged outcome of this assay for the following compound: CC1(C)[C@@H](O)CC[C@]2(C)[C@H]3CC[C@@H]4[C@H]5[C@H](C(=O)/C=C\c6ccncc6)CC[C@]5(O)CC[C@@]4(C)[C@]3(C)CC[C@@H]12
Output: inactive

Input: GET /call?item= NC(N)=Nc1ccc(Oc2cccc(Nc3ccc(Cl)cc3)c2)cn1 returns the recorded outcome of this test.
Output: inactive

* * *

Entries and their growth values follow.
- Tested on: SK-MEL-5 melanoma
- Assay protocol: NCI-60 one-dose screen, 48 h (100 = growth as untreated, 0 = no growth, -100 = all killed)
- Test context: 10 µM unless noted
Compounds without any hit were thinned out: in the full panel of roughly 83,000, 20% have a hit.
Give the value, in units of %, as a plain number.

[
  {
    "Compound": "CNC(=O)c1cc(Oc2ccc3nc(NC(=O)c4ccc(N5CCOCC5)c(C(F)(F)F)c4)sc3c2)ccn1",
    "System": "SK-MEL-5 melanoma",
    "growth, %": 28.8
  },
  {
    "Compound": "O=c1c2ccccc2nc(COc2ccccc2)n1NS(=O)(=O)c1ccc(Cl)cc1",
    "System": "SK-MEL-5 melanoma",
    "growth, %": 94.5
  },
  {
    "Compound": "Cc1nn(-c2ccccc2)c2ncnc(N/N=C/c3cccc(O)c3)c12",
    "System": "SK-MEL-5 melanoma",
    "growth, %": 30.5
  }
]

Input: Quickly give me recorded growth for CCCn1cnc2c(c1=N)C(c1ccc(Cl)cc1)c1sc3c(CC)cccc3c1O2 (configuration not stated)
Output: 31

Input: Give me measured growth, please, for this compound: COc1cccc(/C=C(/C)c2ccc3cccc(OC)c3[o+]2)c1O
Output: 102

Input: Please give the documented growth of O=C(CNc1nc(-c2cccc([N+](=O)[O-])c2)cs1)Nc1cccc([N+](=O)[O-])c1
Output: -84.5

Input: Note growth for the compound shown: Cn1cc(-c2cc(N)n3nc(-c4cn(C)c5ccccc45)cc3n2)c2ccccc21
Output: 92.7

Input: Name the recorded growth of the compound listed here: Cc1ccc(-c2cc3nc(C(Cl)Cl)nc(-c4ccco4)n3n2)cc1
Output: 90.1

Input: For the compound Cc1ccc(S(=O)(=O)NCCNc2nc(Nc3ccc(N4CCN(C)CC4)cc3)nc3ccsc23)cc1 , give its measured growth value.
Output: 95.9

Input: Note down growth recorded for C=C(C=O)[C@@H]1CC[C@]2(C)[C@H](CC=C3[C@H]4[C@@H](C)[C@H](C)CC[C@]4(C(=O)OC)CC[C@]32C)[C@@]1(C)CCC#N
Output: -98

Input: Give reported growth value for CC(=O)O[C@@H]1C(=O)N(c2cnccn2)[C@H]1c1ccccc1[N+](=O)[O-]
Output: -57.2

Input: Specify reported growth for the compound shown: CC(=O)N1N=C(c2cccc(-n3cccc3)c2)CC1c1cccc(F)c1 (configuration not stated)
Output: 98.7

Input: Answer with reported growth of COc1cc(-c2nn(C(C)(C)C)cc2-c2ccnc(NCCCNS(=O)(=O)c3ccc(C)cc3)n2)ccc1Cl
Output: 83.1

Input: Name the recorded growth of the item Cc1cc(C(NC(=O)CCCCCNc2cccc3c2C(=O)N(C2CCC(=O)NC2=O)C3=O)c2ccc3c(c2)OC(F)(F)O3)c(O)c2ncccc12 (configuration not stated) in your answer.
Output: 37

* * *

- System: KM12 colon
- Assay protocol: NCI-60 one-dose screen, 48 h
- Test context: 10 µM unless noted
This is part of a sample that, as a whole, favours compounds with a hit. Of some 83,000 tested, about 20% had one in any assay. Calls of active or inactive are those of the source. The calls were made as follows: active = growth percent below 10; inactive = the rest.
Choose one outcome from this list and give only that: yes (1) = active, no (0) = inactive

[
  {
    "Molecule": "COc1cc2oc(-c3cccc(N)c3)cc(=O)c2c(OC)c1OC",
    "Assigned class": "no (0)"
  },
  {
    "Molecule": "COc1cc(Cn2cc3c(c2)-c2onc(CN4CCOCC4)c2CC3)cc(OC)c1OC",
    "Assigned class": "no (0)"
  },
  {
    "Molecule": "O=C(NCc1ncc[nH]1)c1ccc(-c2nc3ccc4[nH]ncc4c3c3c2CCCC3)cc1",
    "Assigned class": "yes (1)"
  },
  {
    "Molecule": "C=C(C)[C@@H]1CC[C@]2(COP(=O)(OCC)OCC)CC[C@]3(C)[C@H](CC[C@@H]4[C@@]5(C)CCCNC(C)(C)[C@@H]5CC[C@]43C)[C@@H]12",
    "Assigned class": "no (0)"
  },
  {
    "Molecule": "COc1ccc([C@H]2c3[nH]c4ccccc4c3C[C@H]3C(=O)N(C4CCN(Cc5c(Cl)cccc5Cl)CC4)CC(=O)N23)c(OC)c1",
    "Assigned class": "no (0)"
  },
  {
    "Molecule": "CCNC(=O)N1CCc2cc(OC)c(OCCc3ccc(OC)nc3)cc2C1c1ccc(C)cc1C (stereo not drawn)",
    "Assigned class": "yes (1)"
  },
  {
    "Molecule": "CCCCCc1ccc(S(=O)(=O)Nc2cc(-c3csc(NC(=O)CN4CCN(CCO)CC4)n3)ccc2OC)cc1",
    "Assigned class": "no (0)"
  },
  {
    "Molecule": "COc1c(N2CC3CCCNC3C2)c(F)cc2c(=O)c(C(=O)N/N=C/c3ccc4c(c3)OCO4)cn(C3CC3)c12 (stereo not drawn)",
    "Assigned class": "no (0)"
  }
]

Input: Outcome logged for O=C(Nc1nonc1-c1ccccc1)c1ccc(C(F)(F)F)cc1 in this assay:
Output: no (0)

Input: # fetch the recorded call for CCO/C=N/C1=C(C#N)C(c2ccc(F)cc2)c2sc3c(CC)cccc3c2O1 (stereo not drawn) here
Output: no (0)

Input: # lookup: test call for CCCn1cnc2c(c1=N)C(c1ccc(OC)cc1)c1sc3c(CC)cccc3c1O2 (stereo not drawn)
Output: no (0)

Input: Write down the call the test reported for this molecule. Item: CS(=O)(=O)Nc1cc(-c2ccc3ncc(C#N)c(Nc4cccc(Cl)c4F)c3c2)cnc1Cl
Output: yes (1)

Input: I'd appreciate the recorded outcome for C[C@H](CCC(=O)NCc1ccc(C(=O)Nc2ccccc2N)cc1)[C@H]1CC[C@H]2[C@@H]3[C@@H](O)C[C@@H]4C[C@H](O)CC[C@]4(C)[C@H]3CC[C@]12C from this test.
Output: no (0)

Input: Which result was noted for this molecule in the test: COc1ccc(/C=C(/C)c2ccc3ccc(OC)cc3[o+]2)c(O)c1
Output: no (0)
